Test: viability loss of HPDE-C7K cells – cell-based, fluorescence, HTS, primary screen (AID 431)
Settings: HPDE-C7K KRASV12 cells, Alamar Blue viability, 48 h; at 10 µM
The whole screen tested about 63,000 compounds, of which about 1,100 (1.7%) were called active.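 How the source made its calls: active means compounds whose percent cytotoxicity in the single-dose primary screen, scaled between solvent and toxic-drug controls, exceeds 50; inactive means the rest.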 This excerpt belongs to a sample that is enriched for actives. Measured potencies and affinities stand elsewhere.
Outcomes: Yes for active, No for inactive

>>> assigned_category("COC(=O)c1ccccc1NC(=O)c1ccc(-c2ccccc2F)o1")
"Yes"
>>> assigned_category("O=c1oc2ccc3ccccc3c2cc1-c1nnc(-c2ccccc2)o1")
"No"
>>> assigned_category("CN(C)c1ccc(-c2nn3c(-c4ccc(Cl)cc4Cl)nnc3s2)cc1")
"Yes"
>>> assigned_category("COC(=O)c1ccccc1NC(=O)c1ccc(COc2ccccc2)o1")
"No"
>>> assigned_category("O=C(CSC1=Nc2ccccc2C2=NC(CC(=O)NCc3ccco3)C(=O)N12)NCC1CCCO1 (stereo not drawn)")
"No"
>>> assigned_category("CCN(CC)c1ccc2cc(C(=O)Nc3ccccn3)c(=O)oc2c1")
"No"
>>> assigned_category("CN(C)c1ccc(-c2nn3c(-c4ccc(Cl)cc4)nnc3s2)cc1")
"No"
>>> assigned_category("O=C(Nc1ccccc1F)C1CCCN(S(=O)(=O)c2cccc3cccnc23)C1 (stereo not drawn)")
"No"
>>> assigned_category("O=C(COC(=O)c1cc(S(=O)(=O)N2CCOCC2)ccc1O)NCC1CCCO1 (stereo not drawn)")
"Yes"
>>> assigned_category("Cc1ccc(NC(=O)CCn2c(=O)oc3ccccc32)c(C)c1")
"No"
>>> assigned_category("CC(=O)Oc1c(S(=O)(=O)c2ccc(C)cc2)c(C)nn1-c1ccccc1")
"No"
>>> assigned_category("Cc1cc(NC(=O)C23CCC(C)(C(=O)O2)C3(C)C)no1 (stereo not drawn)")
"No"
>>> assigned_category("COc1ccccc1NC(=O)c1ccc(-c2ccccc2F)o1")
"No"
>>> assigned_category("CC(=O)N1CC2(C)CN(C(C)=O)CC(C)(C1)C2O (stereo not drawn)")
"No"
>>> assigned_category("O=C(Nc1ccc(Cl)cn1)c1cc2ccccc2o1")
"No"
>>> assigned_category("CC(=O)Oc1ccc2cc(-c3nc4ccccc4n3C)c(=O)oc2c1")
"No"
>>> assigned_category("COc1ccc(N2C(=O)C3CCCN3C2c2ccccc2OC)cc1 (stereo not drawn)")
"No"
>>> assigned_category("O=S(=O)(Nc1ccc2c(c1)nc1n2CCN(Cc2ccccc2)C1)c1ccccc1")
"No"
>>> assigned_category("Cc1ccc(S(=O)(=O)Nc2ccc3c(c2)nc2n3CCN(Cc3ccccc3)C2)cc1")
"No"
>>> assigned_category("Cc1nn2c(-c3ccc(Cl)cc3Cl)nnc2s1")
"No"
>>> assigned_category("COc1ccc(-c2cnc(N)nc2-c2ccc(OC)cc2O)cc1")
"No"
>>> assigned_category("Oc1ccccc1-c1cc(-c2ccc3c(c2)OCCO3)n[nH]1")
"No"
>>> assigned_category("COC(=O)c1ccc(C(=S)N2CCOCC2)cc1")
"No"

Origin of values: PubChem BioAssay AID431
